experiment description: Inhibition of IL-1beta production in LPS-induced mouse RAW264.7 cells incubated for 24 hrs in presence of LPS by ELISA
Assay type: functional, cell-based
assay context: RAW264.7, 24 h
measured quantity: IC50 (µM)
// units = µM; emit number, no label

Q: Given the molecule Cc1ccc(-c2cc(C(F)(F)F)nn2-c2ccc(S(N)(=O)=O)cc2)cc1 [CELECOXIB] , what is its reported IC50?
Ans: 17.9

* * *

experiment description: Inhibition of TNF-alpha production in LPS-induced mouse RAW264.7 cells incubated for 24 hrs in presence of LPS by ELISA
Type: functional, cell-based
assay context: RAW264.7, 24 h
measured quantity: IC50 (µM)
// units = µM; emit number, no label

Q: Given the compound `Cc1ccc(-c2cc(C(F)(F)F)nn2-c2ccc(S(N)(=O)=O)cc2)cc1` , what is its reported IC50?
Ans: 41.2
